Target: Serine/threonine-protein kinase ULK1 (Homo sapiens)
Sequence (O75385 whole entry): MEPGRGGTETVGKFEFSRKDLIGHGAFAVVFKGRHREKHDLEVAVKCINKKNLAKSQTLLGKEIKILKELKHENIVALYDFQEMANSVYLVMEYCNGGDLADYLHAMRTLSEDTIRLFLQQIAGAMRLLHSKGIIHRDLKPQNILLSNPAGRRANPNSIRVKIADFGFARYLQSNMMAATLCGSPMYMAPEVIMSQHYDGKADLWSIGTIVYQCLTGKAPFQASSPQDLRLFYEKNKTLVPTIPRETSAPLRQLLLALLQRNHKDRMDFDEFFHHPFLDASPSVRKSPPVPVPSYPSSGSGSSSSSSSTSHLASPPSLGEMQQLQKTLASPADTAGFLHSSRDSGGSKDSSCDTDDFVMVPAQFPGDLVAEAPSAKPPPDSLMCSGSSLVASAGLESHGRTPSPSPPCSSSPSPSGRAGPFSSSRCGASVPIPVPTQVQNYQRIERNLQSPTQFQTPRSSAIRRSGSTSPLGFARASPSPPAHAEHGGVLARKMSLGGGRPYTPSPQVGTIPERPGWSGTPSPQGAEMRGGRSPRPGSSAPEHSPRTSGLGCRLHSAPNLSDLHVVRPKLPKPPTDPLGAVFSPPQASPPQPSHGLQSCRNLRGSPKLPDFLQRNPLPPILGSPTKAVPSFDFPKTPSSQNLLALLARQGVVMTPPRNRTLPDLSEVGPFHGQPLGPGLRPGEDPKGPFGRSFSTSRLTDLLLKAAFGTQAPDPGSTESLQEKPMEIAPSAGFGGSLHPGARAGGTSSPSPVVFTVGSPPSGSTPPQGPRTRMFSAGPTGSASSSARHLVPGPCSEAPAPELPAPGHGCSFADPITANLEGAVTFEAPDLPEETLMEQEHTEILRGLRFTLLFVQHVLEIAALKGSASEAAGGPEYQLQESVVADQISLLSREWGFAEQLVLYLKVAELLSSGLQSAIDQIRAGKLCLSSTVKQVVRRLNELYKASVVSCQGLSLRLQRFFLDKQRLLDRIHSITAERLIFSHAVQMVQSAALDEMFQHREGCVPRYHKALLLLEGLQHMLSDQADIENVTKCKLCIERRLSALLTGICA
Assay: Inhibition of recombinant human ULK1 (1-649) expressed in Sf9 cells using myelin basic protein as substrate by ADP-glo assay
pIC50: −log10 of the molar value.
READOUT_TYPE: pIC50

[[record]]
mol_smiles = "FC(F)(F)c1cnc(Nc2cnc3[nH]ccc3c2)nc1NC1CC1"
readout_type = "pIC50"
endpoint_result = 7.54

[[record]]
mol_smiles = "FC(F)(F)c1cnc(Nc2ccnnc2)nc1NC1CC1"
readout_type = "pIC50"
endpoint_result = 7.40

[[record]]
mol_smiles = "FC(F)(F)c1cnc(Nc2ccc3ncccc3c2)nc1NC1CC1"
readout_type = "pIC50"
endpoint_result = 8.30

[[record]]
mol_smiles = "FC(F)(F)c1cnc(Nc2cnc3[nH]ccc3c2)nc1NC1CCC1"
readout_type = "pIC50"
endpoint_result = 7.77

[[record]]
mol_smiles = "O=C(C1CC1)N(C(=O)C1CC1)c1ccc(Nc2ncc(C(F)(F)F)c(NC3CC3)n2)cc1"
readout_type = "pIC50"
endpoint_result = 7.52

[[record]]
mol_smiles = "FC(F)(F)c1cnc(Nc2ccc3[nH]ccc3c2)nc1NC1CC1"
readout_type = "pIC50"
endpoint_result = 7.64


A. FC(F)(F)c1cnc(Nc2ccc3ncoc3c2)nc1NC1CC1
B. FC(F)(F)c1cnc(Nc2ccc3nn[nH]c3c2)nc1NC1CC1
C. Nc1nc(Nc2ccc3c(c2)OCO3)ncc1C(F)(F)F
D. CNc1nc(Nc2cnc3[nH]ccc3c2)ncc1C(F)(F)F
Task item: Arrange items by their pIC50 values in increasing order. List the labels, following the order given in the request.
Reply: C, D, A, B
(C: 6.64, D: 7.47, A: 7.72, B: 8.22)
